Where do these numbers come from? They come from patent US20240360178A1.

Provide the reported IC50 of each item.
# Target of assay: human PD-1 (Jurkat-PD-1 cells) / PE-labeled human PD-L1-Ig (Homo sapiens, UniProt Q15116)
# Construct: expressed in transfected cells; host or cells: Jurkat cell line over-expressing human PD-1
# Sequence (Q15116 25-288): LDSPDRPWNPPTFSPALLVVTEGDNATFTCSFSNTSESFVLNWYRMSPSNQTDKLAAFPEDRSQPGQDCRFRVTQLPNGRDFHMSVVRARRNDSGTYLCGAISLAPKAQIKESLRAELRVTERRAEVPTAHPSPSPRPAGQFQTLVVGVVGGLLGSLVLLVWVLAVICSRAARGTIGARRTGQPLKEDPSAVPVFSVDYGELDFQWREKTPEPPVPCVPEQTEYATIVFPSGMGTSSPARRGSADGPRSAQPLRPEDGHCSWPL
# Measurement description: Jurkat-PD-1 Cell Binding High-Content Screening Assay (CBA); Jurkat hPD1-PDL1 assay
# Study conditions: Jurkat cell line over-expressing human PD-1; PE-labeled PD-L1-Ig 20 nM final; compound incubated 2 hours at 37° C.; read-out: Jurkat HPD1-PDL1 IC50
Positions of bridges follow the written chain, without caps; N, C: chain ends. Non-standard residues stand in square brackets, D forms with d. Residues, ends and D or L forms follow the SMILES beside them. Phe(3,4,5-F3) = N[C@@H](Cc1cc(F)c(F)c(F)c1)C(=O)O; Bip = N[C@@H](Cc1ccc(-c2ccccc2)cc1)C(=O)O; d(cisHyp) = O=C(O)[C@H]1C[C@@H](O)CN1; NMeF = CN[C@@H](Cc1ccccc1)C(=O)O; dPip = O=C(O)[C@H]1CCCCN1; NMeA = CN[C@@H](C)C(=O)O; Nle = CCCC[C@H](N)C(=O)O; Dab = NCC[C@H](N)C(=O)O; Sar = CNCC(=O)O
// return numeric value only (unit: nM, not printed)

Task: # return recorded IC50 for input CC(C)C[C@@H]1NC(=O)[C@H](Cc2c[nH]c3ccccc23)NC(=O)[C@H](CC(=O)O)NC(=O)[C@H](Cc2ccc(O)cc2)NC(=O)[C@H](Cc2ccccc2)NC(=O)CSC[C@@H](C(=O)N[C@@H](C)C(N)=O)NC(=O)[C@H](CO)NC(=O)[C@H](C(C)C)NC(=O)[C@H](CC(C)C)NC(=O)[C@H](CC(N)=O)NC(=O)[C@H]2CCCCN2C(=O)[C@H](C)N(C)C(=O)[C@H](C(C)C)NC(=O)[C@H](Cc2ccc(-c3ccccc3)cc2)NC1=O [Example 1038] ({CH2CO}-FYDWL[Bip]V[NMeA][dPip]NLVSCA-NH2; thioether N-14)
Output: 70

Task: # return recorded IC50 for input CC(C)C[C@@H]1NC(=O)[C@H](Cc2c[nH]c3ccccc23)NC(=O)[C@H](CC(=O)O)NC(=O)[C@H](Cc2ccc(O)cc2)NC(=O)[C@H](Cc2cc(F)c(F)c(F)c2)NC(=O)CSC[C@@H](C(=O)NCC(N)=O)NC(=O)[C@H](CO)NC(=O)[C@H](C(C)C)NC(=O)[C@H](CC(C)C)NC(=O)[C@H](CC(N)=O)NC(=O)CN(C)C(=O)[C@H](C)N(C)C(=O)[C@H](C(C)C)NC(=O)[C@H](Cc2ccc(-c3ccccc3)cc2)NC1=O [Example 1098] ({CH2CO}-[Phe(3,4,5-F3)]YDWL[Bip]V[NMeA][Sar]NLVSCG-NH2; thioether N-14)
Output: 310

Task: # return recorded IC50 for input CC(C)C[C@@H]1NC(=O)[C@H](Cc2c[nH]c3ccccc23)NC(=O)[C@H](CC(=O)O)NC(=O)[C@H](Cc2ccc(O)cc2)NC(=O)[C@H](Cc2ccccc2)NC(=O)CSC[C@@H](C(=O)N[C@@H](C)C(N)=O)NC(=O)[C@H](CO)NC(=O)[C@H](C(C)C)NC(=O)[C@H](CC(C)C)NC(=O)[C@H](CCC(=O)O)NC(=O)CN(C)C(=O)[C@H](C)N(C)C(=O)[C@H](C(C)C)NC(=O)[C@H](Cc2ccc(-c3ccccc3)cc2)NC1=O [Example 1108] ({CH2CO}-FYDWL[Bip]V[NMeA][Sar]ELVSCA-NH2; thioether N-14)
Output: 340

Task: # return recorded IC50 for input CC(C)C[C@@H]1NC(=O)[C@H](CCN)NC(=O)[C@H](Cc2ccccc2)N(C)C(=O)[C@H](C)N(C)C(=O)[C@H](CCCNC(=N)N)NC(=O)[C@H](Cc2ccc(-c3ccccc3)cc2)NC(=O)[C@H](C(C)C)NC(=O)[C@H](Cc2c[nH]c3ccccc23)NC(=O)[C@H](CC(=O)O)NC(=O)[C@H](Cc2ccc(O)cc2)NC(=O)[C@H](Cc2cnc[nH]2)NC(=O)CSC[C@@H](C(=O)NCC(N)=O)NC(=O)[C@H](CO)NC(=O)[C@H](C(C)C)NC1=O [Example 1314] ({CH2CO}-HYDWV[Bip]R[NMeA][NMeF][Dab]LVSCG-NH2; thioether N-14)
Output: 90

Task: # return recorded IC50 for input CC(C)C[C@@H]1NC(=O)[C@H](Cc2c[nH]c3ccccc23)NC(=O)[C@H](CC(=O)O)NC(=O)[C@H](Cc2ccc(O)cc2)NC(=O)[C@H](Cc2ccccc2)NC(=O)CSC[C@@H](C(=O)N[C@@H](C)C(N)=O)NC(=O)[C@H](CO)NC(=O)[C@H](C(C)C)NC(=O)[C@H](CC(C)C)NC(=O)[C@H](CC(N)=O)NC(=O)[C@H]2C[C@@H](O)CN2C(=O)[C@H](C)N(C)C(=O)[C@H](C(C)C)NC(=O)[C@H](Cc2ccc(-c3ccccc3)cc2)NC1=O [Example 1126] ({CH2CO}-FYDWL[Bip]V[NMeA][d(cisHyp)]NLVSCA-NH2; thioether N-14)
Output: 480

Task: # return recorded IC50 for input CC(C)C[C@@H]1NC(=O)[C@H](Cc2c[nH]c3ccccc23)NC(=O)[C@H](CC(=O)O)NC(=O)[C@H](Cc2ccc(O)cc2)NC(=O)[C@H](Cc2c[nH]c3ccccc23)NC(=O)CSC[C@@H](C(=O)NCC(N)=O)NC(=O)[C@H](CO)NC(=O)[C@H](C(C)C)NC(=O)[C@H](CC(C)C)NC(=O)[C@H](CC(N)=O)NC(=O)CN(C)C(=O)[C@H](C)N(C)C(=O)[C@H](C(C)C)NC(=O)[C@H](Cc2ccc(-c3ccccc3)cc2)NC1=O [Example 1135] ({CH2CO}-WYDWL[Bip]V[NMeA][Sar]NLVSCG-NH2; thioether N-14)
Output: 550

Task: # return recorded IC50 for input CC[C@H](C)[C@@H]1NC(=O)[C@H](CC(C)C)NC(=O)[C@H](CC(N)=O)NC(=O)CN(C)C(=O)[C@H](C)N(C)C(=O)[C@H](C(C)C)NC(=O)[C@H](Cc2ccc(-c3ccccc3)cc2)NC(=O)[C@H](CC(C)C)NC(=O)[C@H](Cc2c[nH]c3ccccc23)NC(=O)[C@H](CC(=O)O)NC(=O)[C@H](Cc2ccc(O)cc2)NC(=O)[C@H](Cc2ccccc2)NC(=O)CSC[C@@H](C(=O)NCC(N)=O)NC(=O)[C@H](CO)NC1=O [Example 1142] ({CH2CO}-FYDWL[Bip]V[NMeA][Sar]NLISCG-NH2; thioether N-14)
Output: 610

Task: # return recorded IC50 for input CCCC[C@@H]1NC(=O)[C@H](C(C)C)NC(=O)[C@H](Cc2ccccc2)N(C)C(=O)[C@H](CC(=O)O)NC(=O)[C@H](CCC(=O)O)NC(=O)[C@H](Cc2ccc(-c3ccccc3)cc2)NC(=O)[C@H](C(C)C)NC(=O)[C@H](Cc2c[nH]c3ccccc23)NC(=O)[C@H](CC(=O)O)NC(=O)[C@H](Cc2ccc(O)cc2)NC(=O)[C@H](Cc2ccccc2)NC(=O)CSC[C@@H](C(=O)NCC(N)=O)NC(=O)[C@H](CCCNC(=N)N)NC(=O)[C@H](C(C)C)NC1=O [Example 1191] ({CH2CO}-FYDWV[Bip]ED[NMeF]V[Nle]VRCG-NH2; thioether N-14)
Output: 690
